Measured Kd, listed per entry for reference.
- measurement_target: T1, human Fibroblast Activation Protein (FAP), soluble antigen (human, UniProt Q12884 26-760, biotinylated when immobilized on streptavidin sensors)
- T1 construct: also called hFAP; biotinylated FAP
- T1 sequence (Q12884 26-760 limits assumed): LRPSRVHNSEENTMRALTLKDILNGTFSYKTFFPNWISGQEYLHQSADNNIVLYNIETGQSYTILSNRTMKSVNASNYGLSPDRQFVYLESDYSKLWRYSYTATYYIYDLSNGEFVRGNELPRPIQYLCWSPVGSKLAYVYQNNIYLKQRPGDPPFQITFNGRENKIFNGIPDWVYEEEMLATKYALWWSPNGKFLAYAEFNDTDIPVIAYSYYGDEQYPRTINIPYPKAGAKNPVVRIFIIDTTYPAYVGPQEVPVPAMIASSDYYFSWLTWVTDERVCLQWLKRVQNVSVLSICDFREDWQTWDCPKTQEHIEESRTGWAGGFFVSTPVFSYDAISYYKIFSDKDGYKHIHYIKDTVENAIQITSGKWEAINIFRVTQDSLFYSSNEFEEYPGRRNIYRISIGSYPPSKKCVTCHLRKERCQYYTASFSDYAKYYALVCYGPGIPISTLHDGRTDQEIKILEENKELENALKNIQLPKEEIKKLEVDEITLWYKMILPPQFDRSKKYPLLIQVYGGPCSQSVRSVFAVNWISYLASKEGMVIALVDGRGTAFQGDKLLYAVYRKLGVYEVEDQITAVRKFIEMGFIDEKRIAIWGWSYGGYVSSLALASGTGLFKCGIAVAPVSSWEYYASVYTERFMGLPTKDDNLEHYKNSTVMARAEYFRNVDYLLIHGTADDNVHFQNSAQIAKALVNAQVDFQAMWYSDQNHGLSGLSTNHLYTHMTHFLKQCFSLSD
- experimental_protocol: Affinity (nM), Table 13B
Write the answer as a number in nM, unit excluded.

Below, each entry is followed by its recorded Kd result.
binder	Kd, nM
Rev1-Q27G/P94Y/L96F:H1V11 (bispecific antibody, V domains shown, H1V11 = D029 VH with W31Y:S32F:S55L; also called H1V11 with D029LV2) VH: EVQLVESGGGLVQPGGSLRLSCAASGFTFTYFFMSWVRQAPGKGLEWVSWIGPSGLYTDYADSVKGRFTISRDNSKNTLYLQMNSLRAEDTAVYYCARSQYGRYYSPDYYFDYWGQGTLVTVSS VL: DIQMTQSPSSLSASVGDRVTITCRASGALGFYLNWYQQKPGKAPKLLIYAASSLSSGVPSRFSGSGSGTDFTLTISSLQPEDFATYYCQQGRTYPFTFGQGTKVEIKR	0.51
D029 HV2LV1 (bispecific antibody, V domains shown, also called Rev1/S55L:S32F) VH: EVQLVESGGGLVQPGGSLRLSCAASGFTFTWFFMSWVRQAPGKGLEWVSWIGPSGLYTDYADSVKGRFTISRDNSKNTLYLQMNSLRAEDTAVYYCARSQYGRYYSPDYYFDYWGQGTLVTVSS VL: DIQMTQSPSSLSASVGDRVTITCRASQALGFYLNWYQQKPGKAPKLLIYAASSLSSGVPSRFSGSGSGTDFTLTISSLQPEDFATYYCQQGRTPPLTFGQGTKVEIKR	1.8

Please indicate Kd recorded for Rev1-Q27G/P94Y/L96F:H1V10 (bispecific antibody, V domains shown, H1V10 = D029 VH with T30S:W31R:S55L; also called H1V10 with D029LV2) VH: EVQLVESGGGLVQPGGSLRLSCAASGFTFSRSFMSWVRQAPGKGLEWVSWIGPSGLYTDYADSVKGRFTISRDNSKNTLYLQMNSLRAEDTAVYYCARSQYGRYYSPDYYFDYWGQGTLVTVSS VL: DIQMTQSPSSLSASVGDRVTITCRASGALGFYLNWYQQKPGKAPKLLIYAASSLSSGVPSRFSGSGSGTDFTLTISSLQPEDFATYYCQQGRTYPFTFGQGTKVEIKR
10
